B1: WEE1 (parent)
chain: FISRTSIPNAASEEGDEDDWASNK

# Variants of: B1
# test.protocol: protein stability index of a GFP-peptide fusion (GPS, HEK-293T) (PSI 1-6); higher = more stable;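 also: lentivirally expressed fusions sorted by FACS into six bins by GFP to DsRed ratio, PSI derived from sequencing read proportions per bin multiplied by bin number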
# assay.context: c terminus: a fixed tail appended
Record 1 whenever protein stability index is at 4 or higher; record -1 when lower.

[[record]]
polymer_sequence = "FISRTSIPNAASEEGDESDWASNK [D18S]"
cat = -1


Threshold query (protein stability index >= 4) on FISMTSIPNAASEEGDEDDWASNK [R4M]
1

For FISRTSIVNAASEEGDEDDWASNK [P8V] then?
-1

Then what about the variant FISRTSIPNCASEEGDEDDWASNK [A10C] ?
-1

Input FISRTSIPNAAMEEGDEDDWASNK [S12M]
-1

Would you mind doing FISRTDIPNAASEEGDEDDWASNK [S6D] as well?
1

Same for FISRTSIPNAASENGDEDDWASNK [E14N]
-1

Follow-up item: FISRTSIPWAASEEGDEDDWASNK [N9W]
-1

And then FISRQSIPNAASEEGDEDDWASNK [T5Q] , what is it?
-1

FISRTSIPNAASEEIDEDDWASNK [G15I] , same question.
1

What do you get for FIARTSIPNAASEEGDEDDWASNK [S3A] ?
1

Do the same for FISRTSIPNAASEERDEDDWASNK [G15R] please
-1

// repeat for FISRTVIPNAASEEGDEDDWASNK [S6V] and report
-1

Entry to check: FISRTSIPNAASEEGDEDRWASNK [D19R]
-1

Please answer likewise for FISRTSIPNAASEEGDEDDWKSNK [A21K]
1

What about EISRTSIPNAASEEGDEDDWASNK [F1E] ?
1

Quick one: FISRTSIPNALSEEGDEDDWASNK [A11L]
1

Query FISQTSIPNAASEEGDEDDWASNK [R4Q] next
1

// next record FISRTSIPNAASEEGDEDDWLSNK [A21L]
-1
